The following compounds each carry a recorded IC50 for Voltage-gated inwardly rectifying potassium channel KCNH2 (Homo sapiens, UniProt Q12809).

compound: O=C(NC[C@@H]1[C@H]2CN(C(=O)C3CC3c3cc(Cl)cc(Cl)c3)C[C@@H]12)c1ccc2[nH]c(=O)oc2c1 (stereo partly specified)
unit-name: µM
limit-sign: =
IC50: 4.7

compound: Cc1ccc(COC(=O)N2C[C@@H]3[C@@H](CNC(=O)c4ccc5[nH]c(=O)oc5c4)[C@@H]3C2)nc1
unit-name: µM
limit-sign: >
IC50: 10

compound: O=C(CCN1CCN(C(=O)OCc2cc(Cl)cc(Cl)c2)CC1)c1ccc2[nH]c(=O)oc2c1
unit-name: µM
limit-sign: =
IC50: 0.48

compound: Cc1cc(COC(=O)N2C[C@@H]3[C@@H](CNC(=O)c4ccc5[nH]c(=O)oc5c4)[C@@H]3C2)no1
unit-name: µM
limit-sign: >
IC50: 10

compound: O=C(NC[C@@H]1[C@H]2CN(C(=O)CCc3cc(Cl)cc(Cl)c3)C[C@@H]12)c1ccc2[nH]c(=O)oc2c1
unit-name: µM
limit-sign: =
IC50: 8.1

compound: O=C(NC[C@@H]1[C@H]2CN(C(=O)NCc3cc(Cl)cc(Cl)c3)C[C@@H]12)c1ccc2[nH]c(=O)oc2c1
unit-name: µM
limit-sign: >
IC50: 10
